The following compounds are listed with their measured pEC50 values.
# Measured On: recombinant human S1P1 receptor (Homo sapiens, UniProt P21453)
# Sequence (P21453 whole entry): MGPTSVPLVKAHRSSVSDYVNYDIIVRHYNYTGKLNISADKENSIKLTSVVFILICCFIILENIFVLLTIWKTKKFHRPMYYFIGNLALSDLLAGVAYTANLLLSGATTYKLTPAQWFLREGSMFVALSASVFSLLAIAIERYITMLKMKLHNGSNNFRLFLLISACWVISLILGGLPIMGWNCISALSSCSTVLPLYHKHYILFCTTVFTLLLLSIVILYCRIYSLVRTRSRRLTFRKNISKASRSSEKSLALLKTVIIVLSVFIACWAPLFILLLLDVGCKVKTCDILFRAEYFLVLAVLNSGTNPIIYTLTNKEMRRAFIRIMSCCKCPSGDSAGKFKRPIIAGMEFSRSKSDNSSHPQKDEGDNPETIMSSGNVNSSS
# Protocol Summary: GTPγS assay to determine EC50 values
# Study Conditions: GTPγS binding, membrane preparations of CHO cells expressing recombinant human S1P1 receptor
Scale explanation: pEC50 corresponds to minus log10 of a concentration expressed in moles per litre.

INSERT INTO results (compound, value_reported) VALUES
  ('CCc1sc(C(=O)CCc2cc(C)c(OCC(O)CNCCC(=O)O)c(C)c2)c2c1CC(C)(C)CC2 (stereo not shown)', 9.22),
  ('CCc1sc(C(=O)CCc2cc(C)c(OCC(O)CNC(=O)CN)c(Cl)c2)c2c1CC(C)(C)CC2 (stereo not shown)', 9.10),
  ('Cc1cc(-c2noc(-c3scc4c3CCC(C)(C)C4)n2)cc(C)c1OCC(O)CNC(=O)CO (stereo not shown)', 8.42),
  ('CCc1cc(CCC(=O)c2sc(C(F)(F)F)c3c2CCC(C)(C)C3)cc(C)c1OCC(O)CNC(=O)CCO (stereo not shown)', 8.54),
  ('CCc1sc(C(=O)CCc2ccc(OCCO)cc2OC)c2c1CC(C)(C)CC2', 8.96);

Item CCc1sc(C(=O)CCc2cc(C)c(OCC(O)CNCCN)c(C)c2)c2c1CC(C)(C)CC2 (stereo not shown) has what recorded pEC50? 8.43

Item CCc1sc(C(=O)/C=C/c2cc(C)c(O)c(C)c2)c2c1CC(CC)(CC)CC2 has what recorded pEC50? 8.12
